Reported PAB (+ inh) is given for each of the following molecules.
system: MDCKII-MDR1 cells; test: Transport and cell association across MDCKII-MDR1 monolayers; type: in vitro ADME; settings: absorptive direction, with 5 × 10^−6 M LSN 335984, 5 × 10^−6 M dye, BSA
readout_kind: PAB (+ inh)

| smiles_entry | readout_kind | result_value |
| --- | --- | --- |
| CCN(CC)C(=S)c1ccc(-c2c3ccc(N(C)C)cc3[s+]c3c4c5c(cc23)CCCN5CCC4)s1.F[P-](F)(F)(F)(F)F | PAB (+ inh) | ≤ 1 ≤ 1 10^−9 m s^−1 |
| CCN(CC)C(=S)c1ccc(-c2c3ccc(N(C)C)cc3[s+]c3cc(N(C)C)ccc23)s1.F[P-](F)(F)(F)(F)F | PAB (+ inh) | ≤ 1 ≤ 1 10^−9 m s^−1 |
| CCN(CC)C(=O)c1ccc(-c2c3ccc(N(C)C)cc3[s+]c3c4c5c(cc23)CCCN5CCC4)s1.F[P-](F)(F)(F)(F)F | PAB (+ inh) | ≤ 1 ≤ 1 10^−9 m s^−1 |
